TGT: CaM (Bos taurus)
Construct: made in house; host or cells: E. coli BL21 (DE3)
ASSAY NAME: Pull-down assay with immobilized protein and LSM libraries
Type: binding, bovine
CONDITION CONTEXT: H12 library; 1:2 stoichiometry assumed; read-out: Surface mapping KD (apparent)
RESULT TYPE: Kd (µM)
Return type: number; implicit unit µM.

Q) Entry C[C@@H](CC(=O)N[C@H]1CCC[C@@H]1C(=O)N[C@H]1CCC[C@@H]1C(N)=O)NC(=O)[C@H]1CCC[C@@H]1NC(=O)[C@H]1CCC[C@@H]1NC(=O)C[C@H](CO)NC(=O)[C@H]1CCC[C@@H]1NC(=O)[C@H]1CCC[C@@H]1N [H12 SA] : reported Kd = ?
A) 482

Q) Note, next up: C[C@@H](O)[C@@H](CC(=O)N[C@H]1CCC[C@@H]1C(=O)N[C@H]1CCC[C@@H]1C(=O)N[C@H](CC(=O)N[C@H]1CCC[C@@H]1C(=O)N[C@H]1CCC[C@@H]1C(N)=O)Cc1c[nH]c2ccccc12)NC(=O)[C@H]1CCC[C@@H]1NC(=O)[C@H]1CCC[C@@H]1N [H12 TW]
A) 25

Q) Note, next up: CC[C@H](C)[C@@H](CC(=O)N[C@H]1CCC[C@@H]1C(=O)N[C@H]1CCC[C@@H]1C(N)=O)NC(=O)[C@H]1CCC[C@@H]1NC(=O)[C@H]1CCC[C@@H]1NC(=O)C[C@H](CCC(N)=O)NC(=O)[C@H]1CCC[C@@H]1NC(=O)[C@H]1CCC[C@@H]1N [H12 QI]
A) 263

Q) Note, next up: CC[C@H](C)[C@@H](CC(=O)N[C@H]1CCC[C@@H]1C(=O)N[C@H]1CCC[C@@H]1C(=O)N[C@@H](CCCNC(=N)N)CC(=O)N[C@H]1CCC[C@@H]1C(=O)N[C@H]1CCC[C@@H]1C(N)=O)NC(=O)[C@H]1CCC[C@@H]1NC(=O)[C@H]1CCC[C@@H]1N [H12 IR]
A) 236

* * *

TGT: S100B (Homo sapiens)
Construct: made in house; host or cells: Escherichia coli BL21(DE3)
Sequence (P04271 1-92): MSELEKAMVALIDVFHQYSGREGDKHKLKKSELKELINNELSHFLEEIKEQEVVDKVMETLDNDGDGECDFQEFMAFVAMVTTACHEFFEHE
ASSAY NAME: Pull-down assay with immobilized protein and LSM libraries
Assay type: binding
CONDITION CONTEXT: H12 library; 1:1 binding assumed; read-out: Surface mapping KD (apparent)
pKd: −log10 of the molar value.
Binary call on pKd: T from 4 upward, F beneath that.

Q) # bool: pKd of NC(=O)[C@H]1CCC[C@@H]1NC(=O)[C@H]1CCC[C@@H]1NC(=O)C[C@H](CCC(=O)O)NC(=O)[C@H]1CCC[C@@H]1NC(=O)[C@H]1CCC[C@@H]1NC(=O)C[C@H](Cc1ccc(O)cc1)NC(=O)[C@H]1CCC[C@@H]1NC(=O)[C@H]1CCC[C@@H]1N [H12 YE] >= 4
A) F

Q) Note, next up: CC[C@H](C)[C@@H](CC(=O)N[C@H]1CCC[C@@H]1C(=O)N[C@H]1CCC[C@@H]1C(N)=O)NC(=O)[C@H]1CCC[C@@H]1NC(=O)[C@H]1CCC[C@@H]1NC(=O)C[C@H](CCCCN)NC(=O)[C@H]1CCC[C@@H]1NC(=O)[C@H]1CCC[C@@H]1N [H12 KI]
A) T

Q) Note, next up: CC[C@H](C)[C@@H](CC(=O)N[C@H]1CCC[C@@H]1C(=O)N[C@H]1CCC[C@@H]1C(N)=O)NC(=O)[C@H]1CCC[C@@H]1NC(=O)[C@H]1CCC[C@@H]1NC(=O)C[C@H](Cc1ccc(O)cc1)NC(=O)[C@H]1CCC[C@@H]1NC(=O)[C@H]1CCC[C@@H]1N [H12 YI]
A) T

Q) Note, next up: CC(C)C[C@@H](CC(=O)N[C@H]1CCC[C@@H]1C(=O)N[C@H]1CCC[C@@H]1C(=O)N[C@H](CC(=O)N[C@H]1CCC[C@@H]1C(=O)N[C@H]1CCC[C@@H]1C(N)=O)Cc1ccc(O)cc1)NC(=O)[C@H]1CCC[C@@H]1NC(=O)[C@H]1CCC[C@@H]1N [H12 LY]
A) T

Q) Note, next up: NC(=O)[C@H]1CCC[C@@H]1NC(=O)[C@H]1CCC[C@@H]1NC(=O)C[C@H](CO)NC(=O)[C@H]1CCC[C@@H]1NC(=O)[C@H]1CCC[C@@H]1NC(=O)C[C@H](Cc1c[nH]c2ccccc12)NC(=O)[C@H]1CCC[C@@H]1NC(=O)[C@H]1CCC[C@@H]1N [H12 WS]
A) T

Q) Note, next up: C[C@@H](CC(=O)N[C@H]1CCC[C@@H]1C(=O)N[C@H]1CCC[C@@H]1C(=O)N[C@@H](CCCNC(=N)N)CC(=O)N[C@H]1CCC[C@@H]1C(=O)N[C@H]1CCC[C@@H]1C(N)=O)NC(=O)[C@H]1CCC[C@@H]1NC(=O)[C@H]1CCC[C@@H]1N [H12 AR]
A) F

Q) Note, next up: CC[C@H](C)[C@@H](CC(=O)N[C@H]1CCC[C@@H]1C(=O)N[C@H]1CCC[C@@H]1C(=O)N[C@@H](CCCNC(=N)N)CC(=O)N[C@H]1CCC[C@@H]1C(=O)N[C@H]1CCC[C@@H]1C(N)=O)NC(=O)[C@H]1CCC[C@@H]1NC(=O)[C@H]1CCC[C@@H]1N [H12 IR]
A) T

Q) Note, next up: CC[C@H](C)[C@@H](CC(=O)N[C@H]1CCC[C@@H]1C(=O)N[C@H]1CCC[C@@H]1C(=O)N[C@@H](CO)CC(=O)N[C@H]1CCC[C@@H]1C(=O)N[C@H]1CCC[C@@H]1C(N)=O)NC(=O)[C@H]1CCC[C@@H]1NC(=O)[C@H]1CCC[C@@H]1N [H12 IS]
A) F

Q) Note, next up: CC[C@H](C)[C@@H](CC(=O)N[C@H]1CCC[C@@H]1C(=O)N[C@H]1CCC[C@@H]1C(N)=O)NC(=O)[C@H]1CCC[C@@H]1NC(=O)[C@H]1CCC[C@@H]1NC(=O)C[C@H](CO)NC(=O)[C@H]1CCC[C@@H]1NC(=O)[C@H]1CCC[C@@H]1N [H12 SI]
A) F

Q) Note, next up: C[C@@H](CC(=O)N[C@H]1CCC[C@@H]1C(=O)N[C@H]1CCC[C@@H]1C(N)=O)NC(=O)[C@H]1CCC[C@@H]1NC(=O)[C@H]1CCC[C@@H]1NC(=O)C[C@H](Cc1c[nH]c2ccccc12)NC(=O)[C@H]1CCC[C@@H]1NC(=O)[C@H]1CCC[C@@H]1N [H12 WA]
A) T

Q) Note, next up: CSCC[C@@H](CC(=O)N[C@H]1CCC[C@@H]1C(=O)N[C@H]1CCC[C@@H]1C(N)=O)NC(=O)[C@H]1CCC[C@@H]1NC(=O)[C@H]1CCC[C@@H]1NC(=O)C[C@H](CCCCN)NC(=O)[C@H]1CCC[C@@H]1NC(=O)[C@H]1CCC[C@@H]1N [H12 KM]
A) F
